Experiment: solvent given as SMILES
Settings: in O
Think of 400 nm as a floor: if absorption maximum stands on it or above, it is y; beneath it, n.

1) O=c1ccc2cc3c(cc2o1)OCC3    n
2) O=C([O-])c1c(Cl)c(Cl)c(Cl)c(Cl)c1-c1c2cc(I)c(=O)c(I)c-2oc2c(I)c([O-])c(I)cc12    y
3) CN1/C(=C/C=C(/C=C/c2sc3ccccc3[n+]2C)c2cc(F)cc(F)c2)Sc2ccccc21    y
4) CC[N+]1(CC)CN2C(C)=CC(C)=C(C(=O)[O-])C2=N1    n
5) CCOC(=O)COc1ccc(C(c2c(C)[nH]c3ccccc23)c2c(C)[nH]c3ccccc23)cc1OC    n
6) N#Cc1ccc(N)c2nonc12    y
7) CC(N)=O    n
8) O=C1CCCc2c1[nH]c1cc3c(cc21)OCO3    n
9) CCOC(=O)c1ccccc1-c1c2ccc(=[N+](CC)CC)cc-2oc2cc(N(CC)CC)ccc12    y
